Hey, just so you know, these numbers are from ChEMBL document CHEMBL2069213.

Task for the reader: assign each of the following compounds its reported CC50 at 48 h.
# procedureSummary: Toxicity against macrophages incubated for 48 hrs by resazurin dye reduction assay
# Format: cell-based, Macrophage
Answers are plain numbers, in µM.

compound: Nc1nc(-c2ccc(Cl)cc2)cc(-c2ccc(OCc3cn(Cc4ccccc4)nn3)cc2O)n1
number: 66.6

Below is a list of compounds. For each, state its recorded CC50 at 48 h.
1. O=C1CC(c2ccc(Br)cc2)Oc2cc(OCc3cn(Cc4ccc(Br)cc4)nn3)ccc21 (configuration not stated)
2. O=C(/C=C/c1ccccc1)c1ccc(OCc2cn(Cc3ccc(Br)cc3)nn2)cc1O
3. Nc1nc(-c2ccc(OCc3cn(Cc4ccccc4)nn3)cc2O)cc(-c2cccc3ccccc23)n1

1. 87.5
2. 71.7
3. 71.3

###

# System: Mycolicibacterium aurum
# procedureSummary: Inhibition of FAS2 in recombinant Mycobacterium aurum expressing hsp60 promoter in fusion Escherichia coli lacZ gene assessed as increase in beta-galactosidase activity at 50 uM incubated for 12 hrs by lacZ reporter gene assay
Active and inactive are the calls of the source. No cut-off for these calls is given here.
metric: inhibition

molecule: O=C(/C=C/c1ccccc1)c1ccc(OCc2cn(Cc3ccccc3)nn2)cc1O
metric: inhibition
result: inactive
--
molecule: CCCCCCn1cc(COc2ccc(C(=O)/C=C/c3c(F)cccc3Cl)c(O)c2)nn1
metric: inhibition
result: inactive
--
molecule: CC(C)c1ccc(C2CC(=O)c3ccc(OCc4cn(Cc5ccccc5)nn4)cc3O2)cc1 (configuration not stated)
metric: inhibition
result: inactive
--
molecule: CCCCCCn1cc(COc2ccc3c(c2)OC(c2ccc(Br)cc2)CC3=O)nn1 (configuration not stated)
metric: inhibition
result: inactive

Below is a list of molecules. For each, state its recorded inhibition.
1. O=C(/C=C/c1ccccc1)c1ccc(OCc2cn(Cc3ccc(Br)cc3)nn2)cc1O
2. CCCCCCn1cc(COc2ccc3c(c2)OC(c2ccc(OC)cc2)CC3=O)nn1 (configuration not stated)
3. O=C(/C=C/c1c(F)cccc1Cl)c1ccc(OCc2cn(Cc3ccc(Br)cc3)nn2)cc1O

inactive
inactive
inactive

###

# Tested on: Mycolicibacterium aurum
# procedureSummary: Inhibition of FAS2 in recombinant Mycobacterium aurum expressing Mycobacterium tuberculosis H37Rv kas operon in fusion Escherichia coli lacZ gene assessed as increase in beta-galactosidase activity at 50 uM incubated for 12 hrs by lacZ reporter gene assay
The source made the active and inactive calls. The calls are words filed in the database; no cut-off is given here.
A correct response names exactly one class from active, inactive

Use the examples below as a reference point.
compound: CCCCCCn1cc(COc2ccc3c(c2)OC(c2ccc(OC)cc2)CC3=O)nn1 (configuration not stated)
className: active
--
compound: CC(=O)c1ccc(OCc2cn(Cc3ccccc3)nn2)cc1O
className: inactive
--
compound: CC(=O)c1ccc(OCc2cn(Cc3ccc(Br)cc3)nn2)cc1O
className: inactive
--
compound: CCCCCCn1cc(COc2ccc(C(=O)/C=C/c3c(F)cccc3Cl)c(O)c2)nn1
className: active
--
compound: O=C(/C=C/c1c(F)cccc1Cl)c1ccc(OCc2cn(Cc3ccc(Br)cc3)nn2)cc1O
className: active
--
compound: O=C(/C=C/c1ccccc1)c1ccc(OCc2cn(Cc3ccc(Br)cc3)nn2)cc1O
className: active

As a next step, examine the compound that follows.
Recorded test outcome, item CCCCCCn1cc(COc2ccc(C(C)=O)c(O)c2)nn1
inactive

###

# targetDesc: Serine/threonine-protein kinase PknG (Mycobacterium tuberculosis)
# procedureSummary: Inhibition of Mycobacterium tuberculosis recombinant PKnG expressed in Escherichia coli BL21 (DE3) cells using myelin basic protein substrate at 6.25 uM by luciferase activity based ADP-Glo-luminescent kinase assay
metric: inhibition (%)
Answers are plain numbers, in %.

Consider the following illustrative entries.
chemicalString: Nc1nc(-c2ccccc2)cc(-c2ccc(OCc3cn(Cc4ccccc4)nn3)cc2O)n1
targetDesc: Serine/threonine-protein kinase PknG (Mycobacterium tuberculosis)
inhibition / %: 4
--
chemicalString: CCCCCCn1cc(COc2ccc(-c3cc(-c4ccc(Cl)cc4)nc(N)n3)c(O)c2)nn1
targetDesc: Serine/threonine-protein kinase PknG (Mycobacterium tuberculosis)
inhibition / %: 0
--
chemicalString: Nc1nc(-c2ccc(OCc3cn(Cc4ccc(Br)cc4)nn3)cc2O)cc(-c2cccc3ccccc23)n1
targetDesc: Serine/threonine-protein kinase PknG (Mycobacterium tuberculosis)
inhibition / %: 2
--
chemicalString: Nc1nc(-c2ccc(Br)cc2)cc(-c2ccc(OCc3cn(Cc4ccc(Br)cc4)nn3)cc2O)n1
targetDesc: Serine/threonine-protein kinase PknG (Mycobacterium tuberculosis)
inhibition / %: 0
--
chemicalString: COc1ccc(-c2cc(-c3ccc(OCc4cn(Cc5ccccc5)nn4)cc3O)nc(N)n2)cc1
targetDesc: Serine/threonine-protein kinase PknG (Mycobacterium tuberculosis)
inhibition / %: 0
--
chemicalString: Nc1nc(-c2ccc(OCc3cn(Cc4ccccc4)nn3)cc2O)cc(-c2cccc3ccccc23)n1
targetDesc: Serine/threonine-protein kinase PknG (Mycobacterium tuberculosis)
inhibition / %: 9
--
chemicalString: CC(C)c1ccc(-c2cc(-c3ccc(OCc4cn(Cc5ccccc5)nn4)cc3O)nc(N)n2)cc1
targetDesc: Serine/threonine-protein kinase PknG (Mycobacterium tuberculosis)
inhibition / %: 0
--
chemicalString: Nc1nc(-c2ccc(Cl)cc2)cc(-c2ccc(OCc3cn(Cc4ccccc4)nn3)cc2O)n1
targetDesc: Serine/threonine-protein kinase PknG (Mycobacterium tuberculosis)
inhibition / %: 5

// next entry
Suppose we examine the compound CCCCCCn1cc(COc2ccc(-c3cc(-c4ccccc4)nc(N)n3)c(O)c2)nn1 ; what inhibition value has been reported?
0
